Biological target: T1, Recombinant murine glypican-3 (aa 25-557), R&D Systems (murine, UniProt Q8CFZ4 25-557)
T1 construct: also called muGPC3; Mu GPC3-His
T1 sequence (Q8CFZ4 25-557 limits assumed, form in doubt): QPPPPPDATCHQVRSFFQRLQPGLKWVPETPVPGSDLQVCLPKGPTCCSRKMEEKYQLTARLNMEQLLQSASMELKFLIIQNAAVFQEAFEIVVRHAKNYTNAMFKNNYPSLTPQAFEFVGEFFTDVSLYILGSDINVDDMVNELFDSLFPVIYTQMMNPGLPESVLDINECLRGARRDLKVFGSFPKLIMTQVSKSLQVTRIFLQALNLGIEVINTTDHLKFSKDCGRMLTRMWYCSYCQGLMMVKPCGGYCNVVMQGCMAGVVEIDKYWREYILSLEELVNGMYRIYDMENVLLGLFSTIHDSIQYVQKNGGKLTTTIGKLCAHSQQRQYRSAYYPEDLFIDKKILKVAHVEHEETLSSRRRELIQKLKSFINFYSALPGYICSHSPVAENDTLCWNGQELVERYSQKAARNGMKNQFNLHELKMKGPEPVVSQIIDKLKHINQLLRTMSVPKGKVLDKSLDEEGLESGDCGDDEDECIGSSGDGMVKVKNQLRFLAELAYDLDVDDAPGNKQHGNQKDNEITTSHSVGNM
Assay: SPR 1-point off-rate, alkylated mutant vs parent
Field: muGPC3 koff (mut/par). Provide a value for each of the binders that follow.
// note: answer is a bare numeric in fold

Quickly give me recorded muGPC3 koff (mut/par) for ADX_6077_F02 DG→DA mutant, alkylated (designed binder, C-terminal cysteine alkylated, also called P1-055660; PI-055660) GVSDVPRDLEVVAATPTSLLISWSDDYHAHRYYRITYGETGGNSPVQEFTVPGEHVTATISGLKPGVDYTITVYAVTYDAEKAATDWSISINYRTPC
3.7

Recall and state the measured muGPC3 koff (mut/par) for ADX_6077_F02 DG→AG mutant, alkylated (designed binder, C-terminal cysteine alkylated, also called P1-055669) GVSDVPRDLEVVAATPTSLLISWSDDYHAHRYYRITYGETGGNSPVQEFTVPGEHVTATISGLKPGVDYTITVYAVTYAGEKAATDWSISINYRTPC .
5.5

Fill in muGPC3 koff (mut/par) for record ADX_6077_F02 DG→EG mutant, alkylated (designed binder, C-terminal cysteine alkylated, also called P1-055673) GVSDVPRDLEVVAATPTSLLISWSDDYHAHRYYRITYGETGGNSPVQEFTVPGEHVTATISGLKPGVDYTITVYAVTYEGEKAATDWSISINYRTPC
5.1

Complete the entry with muGPC3 koff (mut/par) for ADX_6077_F02 DG→SG mutant, alkylated (designed binder, C-terminal cysteine alkylated, also called P1-055668) VSDVPRDLEVVAATPTSLLISWSDDYHAHRYYRITYGETGGNSPVQEFTVPGEHVTATISGLKPGVDYTITVYAVTYSGEKAATDWSISINYRTPC
4.8
